- System: rodent lifetime carcinogenesis bioassay, tumor incidence TD50
- PROTOCOL_DESCRIPTION: carcinogenic potency in animals, long-term in vivo studies, CPDB compilation (AID 1745844)
- CONDITION_PARAMETERS: mouse; strain Swiss; males; by gavage; site: lung; lesion: carcinoma; dosed 85 weeks; study length 85 weeks
MEASURE: TD50 (mg/kg/day)
Write the answer as a number in mg/kg/day, unit excluded.

// query Return TD50 measured with rodent lifetime carcinogenesis bioassay, tumor incidence TD50 given this molecule: "NNC(=O)c1ccncc1"
// result 28.9

====

- System: rodent lifetime carcinogenesis bioassay, tumor incidence TD50
- PROTOCOL_DESCRIPTION: carcinogenic potency in animals, long-term in vivo studies, CPDB compilation (AID 1745844)
- CONDITION_PARAMETERS: mouse; strain B6C3F1; females; by gavage; site: forestomach; lesion: squamous-cell papilloma; dosed 104 weeks; study length 105 weeks
Each entry below carries its reported TD50.
Write the answer as a number in mg/kg/day, unit excluded.

ITEM_SMILES: c1ccoc1
MEASURED_ON: rodent lifetime carcinogenesis bioassay, tumor incidence TD50
MEASURE: TD50
EXPERIMENTAL_VALUE: 23.8

Now for a further compound.
// query Please give the measured TD50 for this compound: "Nc1ccc(NCCO)c([N+](=O)[O-])c1"
// result 721
